# systemTested: T1, TNFR1 (Homo sapiens, UniProt P19438)
# T1 chain: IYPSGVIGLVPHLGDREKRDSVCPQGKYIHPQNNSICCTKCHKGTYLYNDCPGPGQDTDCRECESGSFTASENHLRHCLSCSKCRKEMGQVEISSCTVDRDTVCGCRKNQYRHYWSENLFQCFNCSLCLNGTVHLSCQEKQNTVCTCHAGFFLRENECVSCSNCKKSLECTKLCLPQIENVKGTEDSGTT
# testSummary: yeast display SC50
# Lookup of reported apparent Kd (screen) keyed by entry

binder: A10E (designed binder) SMEEEVEKAEKEYEKKKKEAIEKHLEKLKAKDKEAAERFLKELEEAAKEYAKDEAKTMSEEEAKRRAKKYKEKVLLSELSEEEQKEIKEAEEKLVRTILKYVEEAAK
measurementUnit: nM
apparent Kd (screen): 1.27
--
binder: E5F (designed binder) SMEEFVEKAAKEYEKKKKEAIEKHLEKLKAKDKEAAERFLKELEEAAKEYAKDEAKTMSEEEAKRRAKKYKEKVLLSELSEEEQKEIKEAEEKLVRTILKYVEEAAK
measurementUnit: nM
apparent Kd (screen): 1.05
--
binder: V6T (designed binder) SMEEETEKAAKEYEKKKKEAIEKHLEKLKAKDKEAAERFLKELEEAAKEYAKDEAKTMSEEEAKRRAKKYKEKVLLSELSEEEQKEIKEAEEKLVRTILKYVEEAAK
measurementUnit: nM
apparent Kd (screen): 0.49
--
binder: E12R (designed binder) SMEEEVEKAAKRYEKKKKEAIEKHLEKLKAKDKEAAERFLKELEEAAKEYAKDEAKTMSEEEAKRRAKKYKEKVLLSELSEEEQKEIKEAEEKLVRTILKYVEEAAK
measurementUnit: nM
apparent Kd (screen): 0.539
